Tested on: RKO
Assay: Antiproliferative activity against human RKO cells
endpoint: pIC50
Answer as the number alone; pIC50 is minus log10 of concentration in mol/L.

For the compound COc1ccc(N2Cc3cnc(Nc4ccccc4)nc3N([C@@H]3CC[C@@H](O)C3)C2=O)cc1 (racemic) , report pIC50.
5.64

====

Assay: AUC in athymic nude mouse at 50 mg/kg, po
Type: ADME, organism-based
Set-up: dose 50 mg/kg, route oral
Conditions: plasma
endpoint: AUC (ng·h/mL)
A number alone suffices; assume ng·h/mL.

For the compound COc1ccc(N2Cc3cnc(Nc4ccccc4)nc3N([C@@H]3CC[C@@H](O)C3)C2=O)cc1 (racemic) , report AUC.
51300
